Data provenance is ChEMBL document CHEMBL1132856.

Measured GC50 accompanies every entry in the list below.
tested on: Leukemia 60 cell line; experiment: Median growth inhibitory concentration of compound tested in vitro against human leukemia 60 cells; type: functional
READOUT LABEL: GC50

{"columns": ["COMPOUND", "OBSERVED VALUE"],
 "data": [
  ["CCCCCCCCCCCCCCCC(O)C(CO)/N=C(\\S)NCCc1ccccc1 (stereo not given)", "1600 nM"],
  ["S=C=NCCc1ccccc1 [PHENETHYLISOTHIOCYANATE]", "840 nM"],
  ["CCCCCCCCCCCCCCC[C@@H](O)[C@@H](N)CO [DIHYDROSPINGOSINE]", "490 nM"],
  ["CCCCCCCCCCCCC/C=C\\C(O)C(CO)/N=C(\\S)NCCc1ccccc1 (stereo not given)", "640 nM"],
  ["CCCCCCCCCCCCCC=C[C@@H](O)[C@@H](N)CO [SPHINGOSINE]", "1240 nM"]
]}
